Protein target, amino acids: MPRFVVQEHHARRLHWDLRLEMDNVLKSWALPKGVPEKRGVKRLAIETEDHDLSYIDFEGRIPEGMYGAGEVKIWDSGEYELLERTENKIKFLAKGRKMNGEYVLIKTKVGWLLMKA
Property: IC50

                 molecule  experimental_result
0  O=P(O)(O)O [phosphate]               ~50 mM
